- Procedure Details: Cytotoxicity against human CEM-SS cells by XTT method
- Format: cell-based
- Particulars: read-out: TC50 (the source's name)
Quantity Name: CC50

>  <Smiles Data>
Cc1cn([C@H]2C[C@H](F)[C@@H](COC(=O)CCCCCCCCCCCCC(=O)OC[C@H]3O[C@@H](n4cc(C)c(=O)[nH]c4=O)C[C@@H]3F)O2)c(=O)[nH]c1=O

>  <Value Measured>
> 1000 nM

$$$$
>  <Smiles Data>
Nc1ccn([C@@H]2CS[C@H](COC(=O)CCCCCCCCCCC(=O)OC[C@@H]3O[C@H](n4ccc(N)nc4=O)CS3)O2)c(=O)n1

>  <Value Measured>
> 1000 nM

$$$$
>  <Smiles Data>
Cc1cn([C@H]2C[C@H](N=[N+]=[N-])[C@@H](COC(=O)CCCCCCCCCCCCC(=O)OC[C@H]3O[C@@H](n4cc(C)c(=O)[nH]c4=O)C[C@@H]3N=[N+]=[N-])O2)c(=O)[nH]c1=O

>  <Value Measured>
> 1000 nM

$$$$
>  <Smiles Data>
Cc1cn([C@H]2C[C@H](N=[N+]=[N-])[C@@H](CO)O2)c(=O)[nH]c1=O

>  <Value Measured>
> 500 nM

$$$$
>  <Smiles Data>
Cc1cn([C@H]2C[C@H](F)[C@@H](CO)O2)c(=O)[nH]c1=O

>  <Value Measured>
> 500 nM

$$$$
>  <Smiles Data>
Cc1cn([C@H]2C[C@H](N=[N+]=[N-])[C@@H](COC(=O)CCCCCCCCCCC(=O)OC[C@H]3O[C@@H](n4cc(C)c(=O)[nH]c4=O)C[C@@H]3N=[N+]=[N-])O2)c(=O)[nH]c1=O

>  <Value Measured>
> 1000 nM

$$$$

###

- Test system: Human immunodeficiency virus 1
- Procedure Details: Antiviral activity against HIV-1 subtype B US/92/727 infected in PBMC assessed as inhibition of viral replication after 7 days by XTT assay
- Assay type: functional, organism-based
- Particulars: Human immunodeficiency virus 1, subtype B US/92/727, 168 h
pEC50: −log10 of the molar value.
Documented pEC50 across a set of compounds

>  <Smiles Data>
Cc1cn([C@H]2C[C@H](F)[C@@H](CO)O2)c(=O)[nH]c1=O

>  <pEC50>
8.70

$$$$
>  <Smiles Data>
Cc1cn([C@H]2C[C@H](N=[N+]=[N-])[C@@H](COC(=O)CCCCCCCCCCC(=O)OC[C@H]3O[C@@H](n4cc(C)c(=O)[nH]c4=O)C[C@@H]3N=[N+]=[N-])O2)c(=O)[nH]c1=O

>  <pEC50>
8.70

$$$$
>  <Smiles Data>
Nc1ccn([C@@H]2CS[C@H](COC(=O)CCCCCCCCCCC(=O)OC[C@@H]3O[C@H](n4ccc(N)nc4=O)CS3)O2)c(=O)n1

>  <pEC50>
7.70

$$$$

All values here come from ChEMBL document CHEMBL2062511.
